Data provenance: BigSolDB 2.1

conditions: in water, 346.87 K
MEASURED_ATTRIBUTE: solubility (mole fraction)
Reply briefly: the number, and no unit.

Ask: Answer with reported solubility (mole fraction) of O=[N+]([O-])/N=C1\NCCN1Cc1ccc(Cl)nc1
Result: 0.000323

----------
conditions: in chloroform, 310.05 K
MEASURED_ATTRIBUTE: solubility (mole fraction)

Ask: Answer with reported solubility (mole fraction) of O=[N+]([O-])/N=C1\NCCN1Cc1ccc(Cl)nc1
Result: 0.0132

----------
conditions: in 1,2-dichloroethane, 339.95 K
MEASURED_ATTRIBUTE: solubility (mole fraction)
Reply briefly: the number, and no unit.

Ask: Answer with reported solubility (mole fraction) of O=[N+]([O-])/N=C1\NCCN1Cc1ccc(Cl)nc1
Result: 0.0442

----------
conditions: in dichloromethane, 305.96 K
MEASURED_ATTRIBUTE: solubility (mole fraction)

Ask: Answer with reported solubility (mole fraction) of O=[N+]([O-])/N=C1\NCCN1Cc1ccc(Cl)nc1
Result: 0.0199

----------
settings: in 1,2-dichloroethane, 317.43 K
MEASURED_ATTRIBUTE: solubility (mole fraction)
Reply briefly: the number, and no unit.

Ask: Answer with reported solubility (mole fraction) of O=[N+]([O-])/N=C1\NCCN1Cc1ccc(Cl)nc1
Result: 0.0183

----------
conditions: in acetone, 327.89 K
MEASURED_ATTRIBUTE: solubility (mole fraction)
Reply briefly: the number, and no unit.

Ask: Answer with reported solubility (mole fraction) of O=[N+]([O-])/N=C1\NCCN1Cc1ccc(Cl)nc1
Result: 0.0325

----------
conditions: in methanol, 302.15 K
MEASURED_ATTRIBUTE: solubility (mole fraction)
Reply briefly: the number, and no unit.

Ask: Answer with reported solubility (mole fraction) of O=[N+]([O-])/N=C1\NCCN1Cc1ccc(Cl)nc1
Result: 0.00156

----------
details: in dichloromethane, 309.6 K
MEASURED_ATTRIBUTE: solubility (mole fraction)

Ask: Answer with reported solubility (mole fraction) of O=[N+]([O-])/N=C1\NCCN1Cc1ccc(Cl)nc1
Result: 0.0223

----------
settings: in 2-butanone, 320.83 K
MEASURED_ATTRIBUTE: solubility (mole fraction)
Reply briefly: the number, and no unit.

Ask: Answer with reported solubility (mole fraction) of O=[N+]([O-])/N=C1\NCCN1Cc1ccc(Cl)nc1
Result: 0.0379

----------
settings: in 2-butanone, 311.24 K
MEASURED_ATTRIBUTE: solubility (mole fraction)
Reply briefly: the number, and no unit.

Ask: Answer with reported solubility (mole fraction) of O=[N+]([O-])/N=C1\NCCN1Cc1ccc(Cl)nc1
Result: 0.0281

----------
conditions: in 1,2-dichloroethane, 314.14 K
MEASURED_ATTRIBUTE: solubility (mole fraction)
Reply briefly: the number, and no unit.

Ask: Answer with reported solubility (mole fraction) of O=[N+]([O-])/N=C1\NCCN1Cc1ccc(Cl)nc1
Result: 0.0161

----------
conditions: in water, 340.44 K
MEASURED_ATTRIBUTE: solubility (mole fraction)

Ask: Answer with reported solubility (mole fraction) of O=[N+]([O-])/N=C1\NCCN1Cc1ccc(Cl)nc1
Result: 0.000231

----------
conditions: in 2-butanone, 329.81 K
MEASURED_ATTRIBUTE: solubility (mole fraction)

Ask: Answer with reported solubility (mole fraction) of O=[N+]([O-])/N=C1\NCCN1Cc1ccc(Cl)nc1
Result: 0.0504

----------
details: in water, 314.75 K
MEASURED_ATTRIBUTE: solubility (mole fraction)
Reply briefly: the number, and no unit.

Ask: Answer with reported solubility (mole fraction) of O=[N+]([O-])/N=C1\NCCN1Cc1ccc(Cl)nc1
Result: 4.87e-05

----------
conditions: in 2-butanone, 340.65 K
MEASURED_ATTRIBUTE: solubility (mole fraction)
Reply briefly: the number, and no unit.

Ask: Answer with reported solubility (mole fraction) of O=[N+]([O-])/N=C1\NCCN1Cc1ccc(Cl)nc1
Result: 0.0749

----------
settings: in 2-butanone, 343.2 K
MEASURED_ATTRIBUTE: solubility (mole fraction)
Reply briefly: the number, and no unit.

Ask: Answer with reported solubility (mole fraction) of O=[N+]([O-])/N=C1\NCCN1Cc1ccc(Cl)nc1
Result: 0.0823

----------
conditions: in acetone, 321.59 K
MEASURED_ATTRIBUTE: solubility (mole fraction)
Reply briefly: the number, and no unit.

Ask: Answer with reported solubility (mole fraction) of O=[N+]([O-])/N=C1\NCCN1Cc1ccc(Cl)nc1
Result: 0.0265

----------
conditions: in 2-butanone, 337.54 K
MEASURED_ATTRIBUTE: solubility (mole fraction)
Reply briefly: the number, and no unit.

Ask: Answer with reported solubility (mole fraction) of O=[N+]([O-])/N=C1\NCCN1Cc1ccc(Cl)nc1
Result: 0.0678

----------
settings: in 2-butanone, 293.07 K
MEASURED_ATTRIBUTE: solubility (mole fraction)
Reply briefly: the number, and no unit.

Ask: Answer with reported solubility (mole fraction) of O=[N+]([O-])/N=C1\NCCN1Cc1ccc(Cl)nc1
Result: 0.0159

----------
conditions: in dichloromethane, 313.93 K
MEASURED_ATTRIBUTE: solubility (mole fraction)
Reply briefly: the number, and no unit.

Ask: Answer with reported solubility (mole fraction) of O=[N+]([O-])/N=C1\NCCN1Cc1ccc(Cl)nc1
Result: 0.0254

----------
details: in dichloromethane, 302.6 K
MEASURED_ATTRIBUTE: solubility (mole fraction)
Reply briefly: the number, and no unit.

Ask: Answer with reported solubility (mole fraction) of O=[N+]([O-])/N=C1\NCCN1Cc1ccc(Cl)nc1
Result: 0.0177

----------
conditions: in acetone, 319.14 K
MEASURED_ATTRIBUTE: solubility (mole fraction)
Reply briefly: the number, and no unit.

Ask: Answer with reported solubility (mole fraction) of O=[N+]([O-])/N=C1\NCCN1Cc1ccc(Cl)nc1
Result: 0.0248

----------
conditions: in chloroform, 316.75 K
MEASURED_ATTRIBUTE: solubility (mole fraction)
Reply briefly: the number, and no unit.

Ask: Answer with reported solubility (mole fraction) of O=[N+]([O-])/N=C1\NCCN1Cc1ccc(Cl)nc1
Result: 0.0153

----------
conditions: in dichloromethane, 298 K
MEASURED_ATTRIBUTE: solubility (mole fraction)
Reply briefly: the number, and no unit.

Ask: Answer with reported solubility (mole fraction) of O=[N+]([O-])/N=C1\NCCN1Cc1ccc(Cl)nc1
Result: 0.0157

----------
settings: in 1,2-dichloroethane, 299.96 K
MEASURED_ATTRIBUTE: solubility (mole fraction)

Ask: Answer with reported solubility (mole fraction) of O=[N+]([O-])/N=C1\NCCN1Cc1ccc(Cl)nc1
Result: 0.00987

----------
conditions: in water, 324.15 K
MEASURED_ATTRIBUTE: solubility (mole fraction)
Reply briefly: the number, and no unit.

Ask: Answer with reported solubility (mole fraction) of O=[N+]([O-])/N=C1\NCCN1Cc1ccc(Cl)nc1
Result: 8.35e-05

----------
details: in 1,2-dichloroethane, 310.08 K
MEASURED_ATTRIBUTE: solubility (mole fraction)
Reply briefly: the number, and no unit.

Ask: Answer with reported solubility (mole fraction) of O=[N+]([O-])/N=C1\NCCN1Cc1ccc(Cl)nc1
Result: 0.0142

----------
conditions: in 2-butanone, 302.54 K
MEASURED_ATTRIBUTE: solubility (mole fraction)
Reply briefly: the number, and no unit.

Ask: Answer with reported solubility (mole fraction) of O=[N+]([O-])/N=C1\NCCN1Cc1ccc(Cl)nc1
Result: 0.0213

----------
conditions: in dichloromethane, 313.14 K
MEASURED_ATTRIBUTE: solubility (mole fraction)
Reply briefly: the number, and no unit.

Ask: Answer with reported solubility (mole fraction) of O=[N+]([O-])/N=C1\NCCN1Cc1ccc(Cl)nc1
Result: 0.0248

----------
details: in ethanol, 312.34 K
MEASURED_ATTRIBUTE: solubility (mole fraction)
Reply briefly: the number, and no unit.

Ask: Answer with reported solubility (mole fraction) of O=[N+]([O-])/N=C1\NCCN1Cc1ccc(Cl)nc1
Result: 0.00118

----------
conditions: in chloroform, 324.64 K
MEASURED_ATTRIBUTE: solubility (mole fraction)
Reply briefly: the number, and no unit.

Ask: Answer with reported solubility (mole fraction) of O=[N+]([O-])/N=C1\NCCN1Cc1ccc(Cl)nc1
Result: 0.0198

----------
conditions: in ethanol, 330.06 K
MEASURED_ATTRIBUTE: solubility (mole fraction)
Reply briefly: the number, and no unit.

Ask: Answer with reported solubility (mole fraction) of O=[N+]([O-])/N=C1\NCCN1Cc1ccc(Cl)nc1
Result: 0.00251

----------
details: in acetone, 300.05 K
MEASURED_ATTRIBUTE: solubility (mole fraction)
Reply briefly: the number, and no unit.

Ask: Answer with reported solubility (mole fraction) of O=[N+]([O-])/N=C1\NCCN1Cc1ccc(Cl)nc1
Result: 0.0141
